Some sequences, each annotated with its measured binding signal.
Molecular target: OsSMF1 (Oryza sativa, UniProt Q6ZLB0 1-436)
Sequence: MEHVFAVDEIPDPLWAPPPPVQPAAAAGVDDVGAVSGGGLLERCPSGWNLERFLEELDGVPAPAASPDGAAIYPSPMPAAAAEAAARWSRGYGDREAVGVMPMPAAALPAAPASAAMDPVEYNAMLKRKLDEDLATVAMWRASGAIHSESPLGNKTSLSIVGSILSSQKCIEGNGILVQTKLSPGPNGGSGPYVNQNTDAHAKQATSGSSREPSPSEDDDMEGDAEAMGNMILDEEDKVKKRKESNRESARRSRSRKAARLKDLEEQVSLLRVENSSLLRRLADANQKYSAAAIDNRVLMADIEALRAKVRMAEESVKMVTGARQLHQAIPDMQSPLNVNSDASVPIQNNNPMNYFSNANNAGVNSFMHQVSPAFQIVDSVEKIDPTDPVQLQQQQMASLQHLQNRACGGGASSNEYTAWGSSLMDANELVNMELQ
Assay: protein-binding microarray (RPBM); PBS, 2% BSA, 51.3 ng/ul salmon testes DNA, 50 uM zinc acetate, 200 nM TF, 25 C, 1 h; high values mean tight binding
Conditions: protein: recombinant; tags: N-terminal polyhistidine and DsRed monomer fusion (pET32a); chain copies: 2; label: CyDye5-dUTP incorporated in the synthesized complementary strand; 3' TTTTT single-stranded linker to array surface; dsDNA, one strand shown
The full ranking holds about 39,000 sequences; the median of “fluorescence intensity (a.u.)” is about 4,300, and the highest 2% start at about 39,000. Shown is part of a subset that was picked to be rich in the highest values.
MEASUREMENT_LABEL: binding signal

1. TGTTCCAACCCGCTCCGTGTGCTGACGTGGCATGACATGGCGGAGTCACCTAGTGCAG 44900 fluorescence intensity (a.u.)
2. ACAGCGTAGGCTTTTCTTTCACGTCACCACGCGTACGCGACGGAGTCACCTAGTGCAG 6560 fluorescence intensity (a.u.)
3. TGACAGCCACAAGTATGATGTGATAAAGTGTGGCTATAAACGGAGTCACCTAGTGCAG 65500 fluorescence intensity (a.u.)
4. AAGGTGATAGGGTCTCAAGTACGTCATTATGAATGTAAATCGGAGTCACCTAGTGCAG 3910 fluorescence intensity (a.u.)
5. TTGCTGCAAATGACGTCGACATGTGCGTGGCATACCATGGCGGAGTCACCTAGTGCAG 15000 fluorescence intensity (a.u.)
6. CAGATCGGCAGACCAGACCACGTGTACACCCAACACGAGGCGGAGTCACCTAGTGCAG 8390 fluorescence intensity (a.u.)
7. CTTGGCCGTGGCCGCTGACATGGCATCACCTCATCCGCAACGGAGTCACCTAGTGCAG 4320 fluorescence intensity (a.u.)
8. TATATATATATATATATATAAAGTGTATGACATGTGATCACGGAGTCACCTAGTGCAG 3970 fluorescence intensity (a.u.)
9. TCAGTAGGCCAGTAGCTAGCTGCTGCCTTCACACATCAATCGGAGTCACCTAGTGCAG 3160 fluorescence intensity (a.u.)
10. TCTCGCTTAATGTTTTCTTTACACATACGATGCTTTAGATCGGAGTCACCTAGTGCAG 3790 fluorescence intensity (a.u.)
11. GCTAGCGCGCATTGACCAAGATCCGATTTGTATGCTAGTGCGGAGTCACCTAGTGCAG 4060 fluorescence intensity (a.u.)
12. GGCGGCGATGGCGGCCGTGCTGACGGACGATTTCCTGCTCCGGAGTCACCTAGTGCAG 3220 fluorescence intensity (a.u.)
13. CCCGAAGCGGATTCGCGCACGGAAACCCACAGTCGATTCTCGGAGTCACCTAGTGCAG 3590 fluorescence intensity (a.u.)
14. ATTTTCATGCTTAGATGTAGTAACTACACCAACATTACATCGGAGTCACCTAGTGCAG 3310 fluorescence intensity (a.u.)
15. CTTGAAGGAAAACAAGTATAAGGTTCATCCTCATCATCACCGGAGTCACCTAGTGCAG 3270 fluorescence intensity (a.u.)
16. AGTTTTGTACGCATGTGTGGCGCTGACGTCATGCCCGATCCGGAGTCACCTAGTGCAG 18000 fluorescence intensity (a.u.)
17. TTCCAACCCGCCCCGTGTGCTGACGTGGCAGCCATGTTGGCGGAGTCACCTAGTGCAG 19300 fluorescence intensity (a.u.)
18. ATGAACATATTTCAATCGTTCAGTACCTTCAAGCCACAGGCGGAGTCACCTAGTGCAG 39800 fluorescence intensity (a.u.)
19. TTTGCATACGTGCATGCTTGATGACGTCATGCTGACGTGGCGGAGTCACCTAGTGCAG 63100 fluorescence intensity (a.u.)

Values were extracted from paper PMC7819943.
